ABSOLUTE MONOCYTE by entry:
species on record: Rattus norvegicus; experiment: DrugMatrix - Regimen: Daily Repeat; assay type: toxicity, organism-based, Sprague-Dawley; design: regimen Daily Repeat, gender Male, age 6-8 weeks; conditions: in vivo, po, 0 mg/kg, 72 h, tissue Blood, route oral GAVAGE, dose level Control, time 3 day, vehicle 100 % WATER
Report as a plain number; the unit CELLS/uL is understood.

Known results for compounds:
- CCN(CC)CCNC(=O)c1cc(S(C)(=O)=O)ccc1OC [TIAPRIDE]: 109.5
- CS(=O)(=O)c1ccc([C@@H](O)[C@@H](CO)NC(=O)C(Cl)Cl)cc1: 109.5

Value lookup for ABSOLUTE MONOCYTE; key = CC(C)(C)CC(C)(C)c1ccc(OCCOCC[N+](C)(C)Cc2ccccc2)cc1.[Cl-] [BENZETHONIUM CHLORIDE]
166

====

MEAN CORPUSCULAR HEMOGLOBIN by entry:
organism: Rattus norvegicus; assay: DrugMatrix - Regimen: Daily Repeat; type: toxicity, organism-based, Sprague-Dawley; design: regimen Daily Repeat, gender Male, age 6-8 weeks; conditions: in vivo, po, 2000 mg/kg, 120 h, tissue Blood, route oral GAVAGE, dose level High, time 5 day, vehicle .5 % CMC
Report as a plain number; the unit pg is understood.

Known results for compounds:
- CN/C(=N/CCSCc1nc[nH]c1C)NC#N: 25.03
- COc1cc2nc(N3CCN(C(=O)c4ccco4)CC3)nc(N)c2cc1OC: 23.83
- CC1(C)S[C@@H]2[C@H](NC(=O)[C@H](N)c3ccccc3)C(=O)N2[C@H]1C(=O)O: 24.47
- NC1CCN(c2nc3c(cc2F)c(=O)c(C(=O)O)cn3-c2ccc(F)cc2F)C1 (stereo unspecified): 21.83
- O=C1Nc2ccc(Cl)cc2C(c2ccccc2Cl)=NC1O (stereo unspecified): 23.95

Below: the item to evaluate.
Value lookup for MEAN CORPUSCULAR HEMOGLOBIN; key = CN(C/C=C/C#CC(C)(C)C)Cc1cccc2ccccc12
22.37

====

CREATININE by entry:
species on record: Rattus norvegicus; experiment: DrugMatrix - Regimen: Daily Repeat; format: toxicity, organism-based, Sprague-Dawley; design: regimen Daily Repeat, gender Male, age 6-8 weeks; details: in vivo, po, 1500 mg/kg, 72 h, tissue Plasma, route oral GAVAGE, dose level High, time 3 day, vehicle .5 % CMC
Report as a plain number; the unit mg/dL is understood.

Known results for compounds:
* CC(C)=CCC/C(C)=C/CO [GERANIOL] | 0.25
* COC(=O)Nc1nc2ccc([S+]([O-])c3ccccc3)cc2[nH]1 (stereo not given) [OXFENDAZOLE] | 0.17
* CN(C)[C@@H]1C(O)=C(C(N)=O)C(=O)[C@@]2(O)C(O)=C3C(=O)c4c(O)ccc(Cl)c4[C@@](C)(O)[C@H]3C[C@@H]12 [CHLORTETRACYCLINE] | 0.16

Value lookup for CREATININE; key = CC(C)Oc1ccc2c(=O)c(-c3ccccc3)coc2c1 [IPRIFLAVONE]
0.15

Further, for O=c1cnn([C@@H]2O[C@H](CO)[C@@H](O)[C@H]2O)c(=O)[nH]1 [6-AZAURIDINE] ?
0.25

====

ABSOLUTE SEGMENTED NEUTROPHIL by entry:
organism: Rattus norvegicus; assay: DrugMatrix - Regimen: Daily Repeat; assay type: toxicity, organism-based, Sprague-Dawley; set-up: regimen Daily Repeat, gender Male, age 6-8 weeks; conditions: in vivo, po, 2000 mg/kg, 72 h, tissue Blood, route oral GAVAGE, dose level High, time 3 day, vehicle .5 % CMC
Report as a plain number; the unit CELLS/uL is understood.

Known results for molecules:
- O=C1Nc2ccc(Cl)cc2C(c2ccccc2Cl)=NC1O (centres undefined): 1294
- COc1cc2nc(N3CCN(C(=O)c4ccco4)CC3)nc(N)c2cc1OC: 856.67
- CN/C(=N/CCSCc1nc[nH]c1C)NC#N: 2252.33

Below: the item to evaluate.
Value lookup for ABSOLUTE SEGMENTED NEUTROPHIL; key = CC1(C)S[C@@H]2[C@H](NC(=O)[C@H](N)c3ccccc3)C(=O)N2[C@H]1C(=O)O
1064

These entries and their values trace back to ChEMBL document CHEMBL3885881.
